Test: NCI Yeast Anticancer Drug Screen. Data for the mec2-1 strain (AID 157)
Settings: S. cerevisiae mec2-1 strain, at 50.0 µM, active compounds read high
Experimental: Growth inhibition of yeast strains with defined genetic alterations is measured as a screen for potential anti-cancer activity. Selected strains with alterations in DNA damage repair or cell cycle control were exposed to compounds and growth inhibition was measured relative to vehicle treated controls. The strain used in this assay is mec2-1
Compounds without any hit were thinned out: in the full panel of roughly 79,000, 15% have a hit.
Outcome measure: growth inhibition (%)
// return numeric value only (unit: %, not printed)

O=C(CN1CCN(c2ccccc2)CC1)n1nnc2ccccc21 :: -3.9
O=C(Nc1ccc(C(=O)O)cc1)OCc1ccccc1 :: 8.75
CCN(CC)Cc1cc(OC(=O)c2cc(OC)c(OC)c(OC)c2)cc(C(=O)OC)c1 :: 3.7
N#Cc1cc2ccccc2c2ccccc12 :: -4.15

Please find the next molecule below.
Query: Quick check: growth inhibition of "BrC12CC3CC(CC(C3)C1)C2" ?
Reply: 13.1

----------
assay: NCI Yeast Anticancer Drug Screen. Data for the rad50 strain (AID 155);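 note: 0% = growth of vehicle-only cultures of the same strain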; settings: S. cerevisiae rad50 strain growth inhibition; at 50.0 µM; active compounds read high
This is part of a sample that, as a whole, favours compounds with a hit. Of some 79,000 tested, about 15% had one in any assay.
The entries below come with measured growth inhibition values attached.
The reply should be a number in %, with the unit left off.

A selection of reference data follows.
O=S(=O)(N=N/C=C1\C=CC=CN1O)c1cccs1 :: -12.1
Nc1ccc2c(c1)NCC2 :: -27.6
COc1cc2c(cc1C)C(C)(C)CCC2(C)C :: 7.8

Query: What growth inhibition value was documented for this compound, "Cc1[nH]c2ccc([N+](=O)[O-])cc2c1C" ?
Reply: 19.1

Query: Then this compound: "CN(C)c1ccc(C=O)cc1[N+](=O)[O-]"
Reply: 2.75

----------
test: NCI Yeast Anticancer Drug Screen. Data for the cln2 rad14 strain (AID 165);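 note: 0% = growth equal to vehicle treated cultures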; details: S. cerevisiae cln2 rad14 strain, at 50.0 µM, active compounds read high
This is part of a sample that, as a whole, favours compounds with a hit. Of some 79,000 tested, about 15% had one in any assay.
Catalogue of molecules with associated growth inhibition
Reply numerically in %, unit not repeated.

CC(C)COC(=O)c1cc(O)[nH]c(=O)c1 :: -40.1

Query: Entry "NC1=CCNN1" : reported growth inhibition = ?
Reply: 4.1

Query: Moving on to the next molecule: COC(=O)C(N)CSCSC (centres undefined)
Reply: -44

Query: Next molecule up: "O=c1[nH]cc(NS(=O)(=O)O)c(=O)[nH]1"
Reply: 1.45

Query: Another: CC1(C)CCC2(CO)C(=C3C=CC4C5(C)CCC(O)C(C)(CO)C5CCC4(C)C3(C)CC2O)C1 (centres undefined)
Reply: -3.35

Query: And the next one, "O=C1CCCCCCCC(=O)Nc2ccc3nc4ccccc4c(c3c2)SCCCCCCCCCSc2c3ccccc3nc3ccc(cc23)N1" ?
Reply: -13.2

Query: Request: CCOC(=O)C(NC(=O)OCc1ccccc1)C(=O)O (centres undefined)
Reply: 7.7

Query: Same thing, different molecule: O=CC(NC(=O)N(CCF)N=O)C(O)C(O)C(O)CO (centres undefined)
Reply: -15.6

Query: Next record, please: "NCCCCCS(=O)(=O)O"
Reply: 4.05
